Below are IC50 values recorded for UniProt:Q9Y233.
Value kind: IC50 (nM)

> print(dat)
                                    compound  meas.value
 1  Cn1ncc(NC(=O)c2nc(C3CC3)cnc2Nc2cncnc2)c1C(=O)NC1CCCC1O (stereo not shown) [Example 336]         5.3
 2  O=C(Nc1cccnc1C(=O)N1CCC1)c1nc(C2CC2)cnc1Nc1cncnc1 [Example 194]         5.5
 3  CNC(=O)c1c(NC(=O)c2nc(C(C)(C)O)cnc2Nc2cncnc2)cnn1C [Example 341]          28
 4  CNC(=O)c1nn(C)cc1NC(=O)c1nc(C2CCOC2)ccc1Nc1cncnc1 (stereo not shown) [Example 127]         8.5
 5  Cn1ncc(NC(=O)c2nc(C3CC3)cnc2Nc2cncnc2)c1C(=O)NCC(C)(F)F [Example 165]         2.2
 6  O=C(NCC1CCCO1)c1ccncc1NC(=O)c1nc(C2CC2)cnc1Nc1cncnc1 (stereo not shown) [Example 101]         1.5
 7  O=C(NC1COC1)c1ncccc1NC(=O)c1nc(C2CC2)cnc1Nc1cncnc1 [Example 277]         2.7
 8  CNC(=O)COc1ccc(NC(=O)c2nc(C3CC3)cnc2Nc2cncnc2)c(C(=O)NC)c1 [Example 322]         1.7
 9  Cn1cc(NC(=O)c2nc(C3CC3)ccc2Nc2cncnc2)c(C(=O)N2CCCCC2)n1 [Example 16]         7.6
10  O=C(Nc1cnccc1C(=O)N1CCC1)c1nc(C2CC2)ccc1Nc1cncnc1 [Example 67]         4.2
11  CN(CC(C)(C)O)C(=O)c1c(NC(=O)c2nc(C3CC3)cnc2Nc2cncnc2)cnn1C [Example 153]        16.1
12  CNC(=O)c1cc(C#N)ccc1NC(=O)c1nc(C2CC2)cnc1Nc1cncnc1 [Example 261]         3.5
13  Cc1ncc(NC(=O)c2nc(C3CC3)cnc2Nc2cncnc2)c(C(=O)NCC(C)(C)O)n1 [Example 281]         0.6
14  Cn1ncc(NC(=O)c2nc(C3CC3)cnc2Nc2cncnc2)c1C(=O)NCC(F)F [Example 145]         2.9
15  O=C(NCC(O)CO)c1ccncc1NC(=O)c1nc(C2CC2)ccc1Nc1cncnc1 (stereo not shown) [Example 69]         4.1
16  CC1CCCN1C(=O)c1c(NC(=O)c2nc(C3CC3)cnc2Nc2cncnc2)cnn1C (stereo not shown) [Example 239]        47.7
17  Cn1ncc(NC(=O)c2nc(C3CC3)cnc2Nc2cncnc2)c1C(=O)NC[C@@H]1CCCO1 [Example 255]         2.9
18  CN(CC(F)(F)F)C(=O)c1c(NC(=O)c2nc(C3CC3)cnc2Nc2cncnc2)cnn1C [Example 237]        93.4
19  CCn1cc(NC(=O)c2nc(C3CC3)cnc2Nc2cncnc2)c(C(=O)NC)n1 [Example 107]         117

====

target: human PDE10A (Homo sapiens (Human), UniProt Q9Y233)
Sequence (Q9Y233 other isoform, or with tags, fused parts or gaps): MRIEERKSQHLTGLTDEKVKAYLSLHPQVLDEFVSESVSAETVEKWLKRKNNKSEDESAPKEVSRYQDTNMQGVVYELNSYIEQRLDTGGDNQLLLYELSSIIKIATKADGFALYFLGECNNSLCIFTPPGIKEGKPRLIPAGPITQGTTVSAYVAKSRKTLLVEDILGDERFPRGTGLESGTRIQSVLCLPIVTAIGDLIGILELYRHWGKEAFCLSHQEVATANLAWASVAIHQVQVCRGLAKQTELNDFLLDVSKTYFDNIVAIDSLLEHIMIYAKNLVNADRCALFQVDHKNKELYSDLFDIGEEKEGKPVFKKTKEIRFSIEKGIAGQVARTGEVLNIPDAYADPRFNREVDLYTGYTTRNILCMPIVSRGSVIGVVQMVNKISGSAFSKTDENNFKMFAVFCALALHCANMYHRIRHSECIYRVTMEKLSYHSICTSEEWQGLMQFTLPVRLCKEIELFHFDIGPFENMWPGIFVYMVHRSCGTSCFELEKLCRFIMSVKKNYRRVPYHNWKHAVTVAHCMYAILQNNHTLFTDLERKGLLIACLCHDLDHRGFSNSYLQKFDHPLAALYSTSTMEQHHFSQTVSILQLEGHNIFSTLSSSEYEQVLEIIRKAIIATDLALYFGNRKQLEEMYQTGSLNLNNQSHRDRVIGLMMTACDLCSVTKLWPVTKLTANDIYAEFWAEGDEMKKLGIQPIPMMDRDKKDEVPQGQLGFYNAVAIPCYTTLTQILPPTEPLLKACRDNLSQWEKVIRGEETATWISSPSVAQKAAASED
Measured IC50, listed per entry for reference.
Value kind: IC50 (µM)

> print(dat)
                                    molecule  output.unit  meas.value
 1  Cn1cc(NC(=O)c2nc(C3CC3)ccc2Nc2cncnc2)c(C(=O)NC2CC2)n1 [Example 31]           µM      0.0031
 2  CN(C)C1CCN(C(=O)c2nn(C)cc2NC(=O)c2nc(C3CC3)ccc2Nc2cncnc2)C1 (stereo not drawn) [Example 37]           µM      0.0181
 3  CNC(=O)c1c(NC(=O)c2nc(C3CC3)ccc2Nc2cncnc2)cnn1CC1CC1 [Example 13]           µM       0.256
 4  CNC(=O)c1cc(Cl)ncc1NC(=O)c1nc(C2CC2)cnc1Nc1cncnc1 [Example 259]           µM      0.0018
 5  CC(C)(O)CNC(=O)c1ccc(F)cc1NC(=O)c1nc(C2CC2)cnc1Nc1cncnc1 [Example 301]           µM      0.0004
 6  CNC(=O)c1c(NC(=O)c2nc(OC)cnc2Nc2cncnc2)cnn1C [Example 258]           µM       0.176
 7  CNC(=O)c1c(NC(=O)c2nc(C3CC3)cnc2Nc2cncnc2)cnn1C1CCOC1 (stereo not drawn) [Example 250]           µM      0.0159
 8  CNC(=O)c1c(NC(=O)c2nc(C(C)=O)cnc2Nc2cncnc2)cnn1C [Example 184]           µM       0.162
 9  Cn1ncc(NC(=O)c2nc(C3CC3)cnc2Nc2cncnc2)c1C(=O)N1CC(F)C1 [Example 174]           µM      0.0148
10  CNC(=O)c1nn(C)cc1NC(=O)c1nc(C2CCCO2)ccc1Nc1cncnc1 (stereo not drawn) [Example 103]           µM      0.0587
11  CC(C)(O)CNC(=O)c1cc(F)c(F)cc1NC(=O)c1nc(C2CC2)cnc1Nc1cncnc1 [Example 110]           µM      0.0006
12  CCn1ncc(NC(=O)c2nc(C3CC3)cnc2Nc2cncnc2)c1C(=O)NCC1CCCO1 (stereo not drawn) [Example 233]           µM      0.0249
13  O=C(Nc1cnccc1C(=O)N1CCCC1)c1nc(C2CC2)ccc1Nc1cncnc1 [Example 22]           µM      0.0187
14  CN(C(=O)c1c(NC(=O)c2nc(C3CC3)cnc2Nc2cncnc2)cnn1C)C1CC1 [Example 238]           µM      0.0523
15  CN(C)C(=O)c1ncccc1NC(=O)c1nc(C2CC2)cnc1Nc1cncnc1 [Example 129]           µM       0.006
16  Cn1cc(NC(=O)c2nc(C3CC3)ccc2Nc2cncnc2)c(C(=O)NC2CCC2)n1 [Example 33]           µM      0.0031
17  CNC(=O)c1c(NC(=O)c2nc(N3CCC3)cnc2Nc2cncnc2)cnn1C [Example 304]           µM       0.143
18  CC1CCC(C)N1C(=O)c1ccncc1NC(=O)c1nc(C2CC2)ccc1Nc1cncnc1 (stereo not drawn) [Example 59]           µM      0.0844
